# Measurement Notes: proliferation blockers of H69AR lung cancer cells, primary screen, cell-based, human, 86K library (AID 598);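 further: multidrug resistant small cell line overexpressing MRP-1 efflux transporter; 100% = mean luminescence of untreated control wells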
# Condition Info: H69AR lung tumor viability, ATP luminescence, 72 h; at 10 µM; hits give low values
The campaign covered roughly 85,000 compounds. About 5,100 (6%) were called active. Shown is part of a subset that was picked to be rich in actives.
Readout Label: viability

Worked examples follow.
CCN(CC)C(=O)CSc1nnc(-c2cccc(OC)c2)o1    76.1% (inactive)
Cc1nn(-c2ccccc2)c2sc(C(=O)N(Cc3ccco3)C(C)C(=O)NC(C)(C)C)cc12 (stereo not given)    7.03% (active)
Cc1nnc(SCC(=O)NCc2ccccc2)s1    96.4% (inactive)
CCNCCC(=O)N1c2ccccc2Sc2ccc(NC(=O)OCC)cc21    78.6% (inactive)
CCCCOc1ccc(C(=O)NCc2ccncc2)cc1    78.5% (inactive)
COc1ccc(C2=NOC3(CC(=O)N(c4ccc(C)cc4)C3=O)C2)cc1 (stereo not given)    98.4% (inactive)
COc1ccc(-n2c(C)nc3c(cnn3-c3ccccc3)c2=O)cc1    19.6% (active)
CC(C)N1C(=S)SC(C)(C)C1n1oc(=O)n(-c2ccc(Cl)c(Cl)c2)c1=O (stereo not given)    97.1% (inactive)

Provide viability for all items below, preserving their order.
1. O=C(c1ccc(Cl)c(Cl)c1)N1CCCC1
2. COc1cccc(NC(=O)CN(C)S(=O)(=O)c2ccc(C)cc2)c1
3. COC(=O)C1=C(Nc2ccc(OC)cc2)C=C(C)C(C(=O)OC)C1c1ccc(C)cc1 (stereo not given)
4. N#Cc1c2c(c(N3CCN(CCO)CC3)n3c1nc1ccccc13)CCCC2

Result ::
1. 95.3% (inactive)
2. 89.9% (inactive)
3. 55.6% (inactive)
4. 85.5% (inactive)

---

# Measurement Notes: proliferation blockers of H69AR lung cancer cells, primary screen, cell-based, human, 86K library (AID 598);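 further: multidrug resistant small cell line overexpressing MRP-1 efflux transporter; 100% = mean luminescence of untreated control wells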
# Condition Info: H69AR lung tumor viability, ATP luminescence, 72 h; at 10 µM
Screen size: about 85,000 compounds; about 5,100 (6%) were called active.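 How the source made its calls: active means viability at or below 40%; inactive means viability above 40%.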 This excerpt belongs to a sample that is enriched for actives.
Permitted responses: true (1) for active, false (0) for inactive

CCC(C(=O)NC1CCCC1)N(C(=O)c1snc(C(N)=O)c1N)c1ccc2c(c1)OCCO2 (stereo unspecified)    true (1)
COc1ccc(CNc2ccc3c(c2)CCC3)cc1OC    false (0)
CCC(C)c1ccc(O)c(/C=N/O)c1 (stereo unspecified)    true (1)
Clc1ccc(COn2c(-c3ccc(Cl)cc3Cl)nc3ncccc32)cc1    false (0)
Cc1ccc(C(C(=O)NC2CCCCC2)N(C(=O)c2csnn2)C2CC2)o1 (stereo unspecified)    false (0)
CCOc1ccc(Nc2oc(Cc3ccccc3)nc2C#N)cc1    false (0)
COCc1[nH][nH]c(=O)c1C=Nc1ccc(F)cc1F    false (0)
CC1=C/C(=N\OS(=O)(=O)c2ccccc2)C=CC1=O    true (1)
CCOC(=O)N1CCC(N(CCOC)C(=O)Nc2ccc(C)c(C)c2)CC1    false (0)
CCCCCCOc1ccc(OC(=O)c2cccnc2)cc1    false (0)

Here is another compound to look at.
Query :: Could you kindly confirm the outcome this assay logged for COc1ccccc1-c1nc(C#N)c(N2CCC(C(N)=O)CC2)o1 ?
Result :: false (0)
